Experiment: NCI Yeast Anticancer Drug Screen. Data for the rad50 strain (AID 155);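 note: 0% = growth of vehicle-only cultures of the same strain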
Conditions: S. cerevisiae rad50 strain growth inhibition; at 50.0 µM; stronger effect = higher value
Compounds without any hit were thinned out: in the full panel of roughly 79,000, 15% have a hit.
Measured growth inhibition accompanies every entry in the list below.
PROPERTY NAME: growth inhibition (%)

> print(dat)
                                test.smiles  quantitative.result
1              Oc1ccccc1-n1nc2ccc3nonc3c2n1                -16.8
2  O=S(=O)(O)c1cccc(/C(=N\Nc2ccccn2)c2ccccn2)c1                   44
3          O=C(N/N=C/C=C/c1ccccc1)c1ccccc1O                 -1.8

----------
Test: NCI Yeast Anticancer Drug Screen. Data for the mec2-1 strain (AID 157)
Settings: S. cerevisiae mec2-1 strain, at 50.0 µM, stronger effect = higher value
This is part of a sample that, as a whole, favours compounds with a hit. Of some 79,000 tested, about 15% had one in any assay.
Lab note: anything with growth inhibition at or over 20% counts as 1; the rest go in -1.

> print(dat)
                                   compound  category
1  CC(C)(O)C(C)(O)C#CC(C)(O)C(C)(C)O (stereo not given)        -1
2  CCS(=O)(=O)C(S(C)(=O)=O)S(=O)(=O)C(C)C (stereo not given)         1
3                     CCC(=O)/C=C/c1ccccc1O        -1
4  COc1ccc(/C(Cl)=C(\CNc2ccccn2)c2ccccc2)cc1OC        -1
5  CC1C(O)CCC2C1(C)CCC1C2(C)CCC2(C)C3CC(C)(C)CCC3(C)CCC12C (stereo not given)        -1
6             CN1Cc2cc3c(cc2-c2ccccc21)OCO3        -1
7  COc1ccc(C(OC2OC(n3cnc4c(=S)nc(N)[nH]c43)CC2OC(C)=O)(c2ccccc2)c2ccc(OC)cc2)cc1 (stereo not given)         1
8                     CCN(CC)C(=O)c1ccccc1C        -1
9      CC(=O)/C(=C/c1ccc(F)cc1)C(=O)CCN(C)C        -1

----------
Form field: growth inhibition (one value per entry).
Experiment: NCI Yeast Anticancer Drug Screen. Data for the cln2 rad14 strain (AID 165);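 note: 0% = growth equal to vehicle treated cultures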
Conditions: S. cerevisiae cln2 rad14 strain, at 50.0 µM, stronger effect = higher value
Compounds without any hit were thinned out: in the full panel of roughly 79,000, 15% have a hit.
PROPERTY NAME: growth inhibition (%)

> print(dat)
                                test.smiles  quantitative.result
1                   O=C(NNC1=NCCCN1)c1ccco1                -22.2
2   Cc1ccc2c(O)c3c(cc2c1O)C(=O)c1ccccc1C3=O                 21.3
3                  O=c1[nH]cc(CO)c(=O)[nH]1                    6
4  O=C1c2ccccc2C(=O)c2c1cccc2S(=O)(=O)Nc1ccccc1                -30.1

----------
Assay: NCI Yeast Anticancer Drug Screen. Data for the mlh1 rad18 strain (AID 175)
Details: S. cerevisiae mlh1 rad18 strain growth inhibition; at 50.0 µM; stronger effect = higher value
This is part of a sample that, as a whole, favours compounds with a hit. Of some 79,000 tested, about 15% had one in any assay.
In this section we review reported growth inhibition values for a set of compounds.
PROPERTY NAME: growth inhibition (%)

> print(dat)
                                    compound  unit.symbol  quantitative.result
 1  CC1(C)CNCC2(C)OCCCOC3(C)CNCC(C)(C)NC(=O)C(C)(CNCC(C)(C)NC3=O)OCCCOC(C)(CNCC(C)(C)NC2=O)C(=O)N1            %                -21.7
 2           Nc1ccc(C(=O)O)c([N+](=O)[O-])c1            %                 -2.1
 3          Cc1nc(N)nc(C)c1N=Nc1ccc(Cl)cc1Cl            %                  9.6
 4                     COC=C(C(=O)OC)C(=O)OC            %                 3.85
 5  N#CC1C(=O)NC(=S)NC1c1ccc(Cl)c(Cl)c1 (stereo not drawn)            %                -5.25
 6  O=C1/C(=C\c2ccccc2)C2C3CCC(C3)C2/C1=C\c1ccccc1 (stereo not drawn)            %                -17.4
 7                    CC(C)(CCN)[N+](=O)[O-]            %                 -2.5
 8  O=C(O)C1C2CC(C(Br)C2Br)C1C(=O)O (stereo not drawn)            %                -12.2
 9                      O=C(O)C(CCl)(CCl)CCl            %                 15.2
10  O=C(/C=C/c1ccc(O)c(O)c1)OC1C[C@@](O)(C(=O)O)C[C@@H](O)[C@H]1OC(=O)/C=C/c1ccc(O)c(O)c1 (stereo partly drawn)            %                 25.9
11  O=C1OC(=O)C2C3CC(C4OC34)C12 (stereo not drawn)            %                 4.05
12  Cc1cc(N)ccc1N=Nc1cc(S(=O)(=O)O)c2cccc(S(=O)(=O)O)c2c1            %                -4.55
13          N#C/C(=C\c1cc(F)cc(F)c1)c1ccccn1            %                 30.2
14  COC1OC2COC1(OCc1ccccc1)C1OC(C)(C)OC21 (stereo not drawn)            %                 5.35
15                  Cc1cc(S(=O)(=O)Cl)ccc1Cl            %                  7.6
16  O=c1[nH]c(=O)n(C2CC(O)C(CO)O2)cc1/C=C/Br (stereo not drawn)            %                -18.1
17  COc1cc([C@H]2Oc3cc([C@H]4Oc5cc(O)cc(O)c5C(=O)[C@@H]4O)ccc3O[C@@H]2CO)ccc1O            %                 6.05
18  CC1C=CC(C(=O)Nc2ccc(Cl)c(Cl)c2)N1C (stereo not drawn)            %                 2.75

----------
Test: NCI Yeast Anticancer Drug Screen. Data for the mlh1 rad18 strain (AID 175)
Settings: S. cerevisiae mlh1 rad18 strain growth inhibition; at 50.0 µM; stronger effect = higher value
Compounds without any hit were thinned out: in the full panel of roughly 79,000, 15% have a hit.
If the reported growth inhibition equals or exceeds 20%, assign Satisfied. If not, assign Not satisfied.

> print(dat)
                                   compound       category
1                    O=C(O)c1cncc(C(=O)O)c1  Not satisfied
2  C/C(O)=C(/N=Nc1ccc(-c2nc3ccc(C)c(S(=O)(=O)O)c3s2)cc1)C(=O)Nc1ccccc1      Satisfied
3  NC(Cc1ccc(CP(=O)(O)O)cc1)C(=O)O (configuration not stated)  Not satisfied
4       O=C(Nc1nnc(C(F)(F)F)s1)c1c(F)cccc1F      Satisfied
5  CC(C)C(CC1CCCCC1)C(C)O (configuration not stated)  Not satisfied
6                 Cn1ncc2c(=O)[nH]c(NN)nc21  Not satisfied
7                     CN(C)c1ncnc2nc[nH]c12  Not satisfied

----------
Assay: NCI Yeast Anticancer Drug Screen. Data for the bub3 strain (AID 167)
Details: S. cerevisiae bub3 mutant strain, at 50.0 µM
This is part of a sample that, as a whole, favours compounds with a hit. Of some 79,000 tested, about 15% had one in any assay. Calls of active or inactive are those of the source. Rule as the data show it: active = growth inhibition above about 70%; inactive = the rest.
Classes used: active, inactive

MOLECULE	CATEGORY
C#CCOC(=O)c1ccc(OC(C)=O)cc1	inactive
O=C(CC1C(=O)Nc2ccccc2S1=O)Nc1ccc(Cl)cc1 (stereo unspecified)	inactive
Clc1cnc(/N=C/c2ccc(/C=N/c3ncc(Cl)cc3Cl)cc2)c(Cl)c1	inactive
Nc1nnnn1C(=O)NCCCl	inactive
CC(O)C(=O)N1CCOCC1 (stereo unspecified)	inactive
N#CC(=Nc1ccc2ccccc2c1)C1=C(O)c2ccccc2C1=O	inactive
CCC(=O)c1ccc2c(ccc3ccccc32)c1O	inactive
Cc1c([N+](=O)[O-])cc(C(C)(C)C)c(OC(=O)C(C)(C)C)c1[N+](=O)[O-]	active
COC(=O)CC/C=N/NC(N)=O	inactive
O=C(NNC(=S)Nc1ccc(S(=O)(=O)N2CCCCC2)cc1)c1ccncc1	inactive
COc1cc(OC)c(N=Nc2c(C)nc(N)nc2-c2ccccc2)cc1Cl	inactive
C#CCNCCCn1c(=O)nc2n(-c3ccccc3)c3ccccc3nc-2c1=O	inactive
Cc1c(C(=O)O)c2ccccc2[nH]c1=O	inactive
Nc1ncnc2c1S(=O)(=O)NCN2	inactive
COC(=O)CC(c1ccc2c(c1)OCO2)N1CCOCC1 (stereo unspecified)	inactive
Cc1cccc(C)c1NC(=S)NC(=O)c1cccc(Cl)c1	inactive
CC(=N\N=C\c1ccccn1)/C(C)=N/N=C(C)/C(C)=N/N=C(C)/C(C)=N/N=C/c1ccccn1	inactive
CSc1nc(-c2ccc(C)cc2)c(C#N)c(=O)[nH]1	inactive
Cc1c[n+]([O-])cc(C)c1N=Nc1ccc(N(C)C)cc1	inactive
CC(=O)OC1/C=C(/C)CCC2OC2(C)CC2OC(=O)C3(CC3)C12 (stereo unspecified)	inactive
COc1ccc(/C=N/N2CN(C(C)C(=O)O)B(NC34CC5CC(CC(C5)C3)C4)N=C2N)cc1OC (stereo unspecified)	inactive
O=[N+]([O-])c1ccc(CC(Cl)c2ccccn2)cc1 (stereo unspecified)	inactive
CC(=O)Cc1ccc(Cl)cc1[N+](=O)[O-]	inactive
CCOc1ccc(NC(=O)C(=O)C(C(=O)c2ccc3ccccc3c2)C2OC(=O)c3ccccc32)cc1 (stereo unspecified)	inactive
CC1(C)CCC2(CC1)CC[N+](C)(CCC[N+](C)(C)C)CC2	inactive
O=c1cc(-c2ccccc2)oc2c(-c3cc(Cl)cc4c(=O)cc(-c5ccccc5)oc34)cc(Cl)cc12	inactive
N#C/C(=C\c1ccccc1Cl)C(N)=S	inactive
CCCC(CCCC(=O)O)C(=O)O (stereo unspecified)	inactive
CC(Nc1cccc(Cl)c1)c1ccncc1 (stereo unspecified)	inactive
CCc1ccc(OC(C)=O)cc1	inactive
COc1cc(-c2cc(OC)c(N=N/C(=N/Nc3ccc([N+](=O)[O-])cc3)c3ccc([N+](=O)[O-])cc3)cc2Cl)c(Cl)cc1N=N/C(=N\Nc1ccc([N+](=O)[O-])cc1)c1ccc([N+](=O)[O-])cc1	inactive
CN(C)c1c([N+](=O)[O-])cc2[nH]cnc2c1[N+](=O)[O-]	inactive
N#CCC(=O)N/N=C1\C(=O)N(c2ccc(Cl)cc2)C(=O)C(=O)C1c1nc2ccccc2o1 (stereo unspecified)	inactive
c1ccc(C(CCN2CC3CCC(CC3)C2)c2ccccc2)cc1	inactive
N/N=C(\N)SCc1ccc(N=C=S)cc1	inactive
O=CCCc1ccccc1	inactive
O=C(O)C(=Cc1ccc(-c2ccc([N+](=O)[O-])cc2)o1)C(=O)O	inactive
COc1c(NC(=O)c2cccc(C(=O)Nc3cccc([N+](=O)[O-])c3OC)c2)cccc1[N+](=O)[O-]	inactive
COC(=O)C(N)C(C)(C)S (stereo unspecified)	inactive
O=C(CCN1C(=O)c2ccccc2C1=O)NCS(=O)(=O)O	inactive
COc1ccc(-c2c(C#N)c(O)n(NS(=O)(=O)c3ccc(C)cc3)c(=O)c2C#N)cc1	inactive
